Target: E. coli FabI (Escherichia coli)
Sequence (P0AEK4 whole entry): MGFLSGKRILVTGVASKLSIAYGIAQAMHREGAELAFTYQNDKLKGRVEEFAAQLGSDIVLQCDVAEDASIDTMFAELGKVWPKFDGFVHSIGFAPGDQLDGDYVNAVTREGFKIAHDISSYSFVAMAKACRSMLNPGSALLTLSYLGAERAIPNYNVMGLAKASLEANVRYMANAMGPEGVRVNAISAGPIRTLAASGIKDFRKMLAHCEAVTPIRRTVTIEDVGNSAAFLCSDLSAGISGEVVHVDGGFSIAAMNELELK
Assay: FabI assay, E. coli enzyme
Assay type: biochemical
assay-metric: IC50

Just so you know, measured IC50 for `CN(Cc1cn(C)c2ccccc12)C(=O)/C=C/c1cnc2c(c1)CCC(=O)N2` came out at < 0.06 µM

----------
Molecular target: S. pneumoniae FabK (Streptococcus pneumoniae, UniProt Q9FBC5, T318A)
Sequence (Q9FBC5 whole entry T318A): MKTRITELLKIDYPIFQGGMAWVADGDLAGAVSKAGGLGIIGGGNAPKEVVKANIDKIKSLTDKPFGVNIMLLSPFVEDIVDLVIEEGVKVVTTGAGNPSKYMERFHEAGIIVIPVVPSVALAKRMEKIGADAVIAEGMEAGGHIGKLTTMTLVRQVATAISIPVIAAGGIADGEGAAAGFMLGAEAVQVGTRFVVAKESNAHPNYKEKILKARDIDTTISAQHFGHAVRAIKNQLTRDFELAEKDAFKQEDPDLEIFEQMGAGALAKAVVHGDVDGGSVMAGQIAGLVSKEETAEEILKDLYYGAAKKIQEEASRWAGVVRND
Experiment: FabK enoyl-ACP reductase assay (NADH oxidation at 340 nm)
Reported IC50 is given for each of the following compounds.
# unit: µM | format: bare number

Cc1[nH]c2ccccc2c1CN(C)C(=O)/C=C/c1cnc2c(c1)CCC(=O)N2 = 5.2

Continue with the compound presented below.
Just so you know, measured IC50 for `CN(Cc1cn(C)c2ccccc12)C(=O)/C=C/c1cnc2c(c1)CCC(=O)N2` came out at 5.7

Where do the numbers come from? From patent US7048926B2.
